Tested on: HEK-293T
Assay: Multiplex assay against HEK293T
Assay type: toxicity, cell-based
Details: human, 12 h, 1 µM, compound concentration 1 uM, replicate 2

MOLECULE: CC(C)(C)c1ccc(CSc2cnn(C(C)(C)C)c(=O)c2Cl)cc1
MEASURED TARGET: HEK-293T
Population Mitotic Cells (%): 71%

MOLECULE: Cc1cc(NC(=O)NCCN2CCC(O)(Cc3ccccc3)CC2)c2ccccc2n1
MEASURED TARGET: HEK-293T
Population Mitotic Cells (%): 52%

MOLECULE: O=C(Nc1cc(-c2ccccc2)nn1-c1ccccc1F)c1ccc([N+](=O)[O-])cc1
MEASURED TARGET: HEK-293T
Population Mitotic Cells (%): 62%

MOLECULE: C[C@H](NC(=O)CNC(=O)c1cccc(Cl)c1)c1ccccc1
MEASURED TARGET: HEK-293T
Population Mitotic Cells (%): 51%

MOLECULE: CCCCC[C@H](O)/C=C/[C@H]1[C@H](O)CC(=O)[C@@H]1CCCCCCC(=O)O
MEASURED TARGET: HEK-293T
Population Mitotic Cells (%): 49%

MOLECULE: CCn1c(-c2nc3cc(C(=O)N4CCCC(N)C4)ccc3n2C)cc2ccccc21.Cl (stereo unspecified)
MEASURED TARGET: HEK-293T
Population Mitotic Cells (%): 52%

MOLECULE: COCCCN1CCC(NC(=O)c2cc(Cl)c(N)c3c2OCC3)CC1 [PRUCALOPRIDE]
MEASURED TARGET: HEK-293T
Population Mitotic Cells (%): 68%

MOLECULE: S=C(NCCCc1c[nH]cn1)NCCCN(Cc1ccc(Cl)c(Cl)c1)c1ccc(Br)cn1
MEASURED TARGET: HEK-293T
Population Mitotic Cells (%): 46%

MOLECULE: Cc1sc2c(c1C)C(c1ccc(Cl)cc1)=N[C@H](CC(=O)OC(C)(C)C)c1nnc(C)n1-2
MEASURED TARGET: HEK-293T
Population Mitotic Cells (%): 55%

MOLECULE: CCCCCCNC(=O)Nc1ccc(S(=O)(=O)Nc2ccc(CCNC[C@H](O)COc3ccc(O)cc3)cc2)cc1
MEASURED TARGET: HEK-293T
Population Mitotic Cells (%): 68%

MOLECULE: COc1ccc2c(c1OCc1ccccc1)C[C@@H](C(=O)O)N(C(=O)C(c1ccccc1)c1ccccc1)C2
MEASURED TARGET: HEK-293T
Population Mitotic Cells (%): 56%

MOLECULE: CN1C[C@H](C(=O)N[C@]2(C)O[C@@]3(O)[C@@H]4CCCN4C(=O)[C@H](Cc4ccccc4)N3C2=O)C[C@@H]2c3cccc4[nH]cc(c34)C[C@H]21.CS(=O)(=O)O [DIHYDROERGOTAMINE MESYLATE]
MEASURED TARGET: HEK-293T
Population Mitotic Cells (%): 53%

MOLECULE: Nc1nc(CC(=O)Nc2ccc(CCNC[C@H](O)c3ccccc3)cc2)cs1
MEASURED TARGET: HEK-293T
Population Mitotic Cells (%): 44%

MOLECULE: CN(C)C/C=C/C(=O)Nc1ccc(C(=O)N2CCCC(Nc3ncc(Cl)c(-c4c[nH]c5ccccc45)n3)C2)cc1 (stereo unspecified)
MEASURED TARGET: HEK-293T
Population Mitotic Cells (%): 36%

MOLECULE: O=C(NCCNCC(O)COc1ccc(O)cc1)N1CCOCC1.O=C(NCCNCC(O)COc1ccc(O)cc1)N1CCOCC1.O=C(O)/C=C/C(=O)O (stereo unspecified) [XAMOTEROL FUMARATE]
MEASURED TARGET: HEK-293T
Population Mitotic Cells (%): 39%

MOLECULE: COc1cc(Nc2ncc3c(n2)-c2ccc(Cl)cc2C(c2c(F)cccc2OC)=NC3)ccc1C(=O)O
MEASURED TARGET: HEK-293T
Population Mitotic Cells (%): 38%

====

System: Fibroblast
Experiment: Multiplex assay against human fibroblast
Type: toxicity, cell-based
Conditions: 24 h, 1 µM, compound concentration 1 uM, replicate 2
PROPERTY NAME: Population Mitotic Cells (%)

MOLECULE: CC(C)(O)C(=O)N1CCN(c2ccc(C(F)(F)F)c(C3=C(c4c[nH]c5ccccc45)C(=O)NC3=O)c2)CC1
UNIT ABBREVIATION: %
RECORDED NUMBER: 68
//
MOLECULE: Cc1cc(-c2ccc3c(c2)CC[C@H]3N2CC3(CCN(C(=O)Cc4cn5cc(C)sc5n4)CC3)C2)ncn1 [PF-5190457]
UNIT ABBREVIATION: %
RECORDED NUMBER: 84
//
MOLECULE: COc1ccc2c(c1OCc1ccccc1)C[C@@H](C(=O)O)N(C(=O)C(c1ccccc1)c1ccccc1)C2 [OLODANRIGAN]
UNIT ABBREVIATION: %
RECORDED NUMBER: 61
//
MOLECULE: COc1cc2nc(N3CCN(C(=O)c4ccco4)CC3)nc(N)c2cc1OC.Cl [PRAZOSIN HYDROCHLORIDE]
UNIT ABBREVIATION: %
RECORDED NUMBER: 54

====

Tested on: U2OS
Assay: Multiplex assay against U2OS
Assay type: toxicity, cell-based
Conditions: human, 48 h, 1 µM, compound concentration 1 uM, replicate 2
Measured Population Normal (%), listed per entry.

COMPOUND: O=C(NCCNCC(O)COc1ccc(O)cc1)N1CCOCC1.O=C(NCCNCC(O)COc1ccc(O)cc1)N1CCOCC1.O=C(O)/C=C/C(=O)O (stereo not given) [XAMOTEROL FUMARATE]
Population Normal (%): 97

COMPOUND: O=C(O)CCC/C=C\CC1C(O)CC(O)C1/C=C/C(O)COc1cccc(Cl)c1 (stereo not given)
Population Normal (%): 99

COMPOUND: O=C(Nc1cc(-c2ccccc2)nn1-c1ccccc1F)c1ccc([N+](=O)[O-])cc1
Population Normal (%): 98

COMPOUND: COc1cc2nc(N3CCN(C(=O)c4ccco4)CC3)nc(N)c2cc1OC.Cl [PRAZOSIN HYDROCHLORIDE]
Population Normal (%): 98

COMPOUND: O=c1nc2[nH]c3ccccc3nc-2c(=O)[nH]1
Population Normal (%): 93

COMPOUND: CCCCC[C@H](O)/C=C/[C@H]1[C@H](O)CC(=O)[C@@H]1CCCCCCC(=O)O
Population Normal (%): 96

COMPOUND: OCCCNc1cc(-c2ccnc(Nc3cccc(Cl)c3)n2)ccn1
Population Normal (%): 87

COMPOUND: Cc1cc(-c2ccc3c(c2)CC[C@H]3N2CC3(CCN(C(=O)Cc4cn5cc(C)sc5n4)CC3)C2)ncn1
Population Normal (%): 97

COMPOUND: CC(C)(O)C(=O)N1CCN(c2ccc(C(F)(F)F)c(C3=C(c4c[nH]c5ccccc45)C(=O)NC3=O)c2)CC1
Population Normal (%): 98

COMPOUND: Cc1cc(NC(=O)NCCN2CCC(O)(Cc3ccccc3)CC2)c2ccccc2n1
Population Normal (%): 97

COMPOUND: S=C(NCCCc1c[nH]cn1)NCCCN(Cc1ccc(Cl)c(Cl)c1)c1ccc(Br)cn1
Population Normal (%): 99

COMPOUND: Nc1nc(-c2ccco2)c2cnn(Cc3ccccc3F)c2n1
Population Normal (%): 93

COMPOUND: CSc1nc(NC2CCCC2)c([N+](=O)[O-])c(NC2CCCC2)n1
Population Normal (%): 100

COMPOUND: N[C@](CC1c2ccccc2Oc2ccccc21)(C(=O)O)[C@H]1C[C@@H]1C(=O)O
Population Normal (%): 98

COMPOUND: CN1C[C@H](C(=O)N[C@]2(C)O[C@@]3(O)[C@@H]4CCCN4C(=O)[C@H](Cc4ccccc4)N3C2=O)C[C@@H]2c3cccc4[nH]cc(c34)C[C@H]21.CS(=O)(=O)O [DIHYDROERGOTAMINE MESYLATE]
Population Normal (%): 98

COMPOUND: Cc1c(Cc2ccc3ccccc3n2)c2cc(F)ccc2n1CC(=O)O
Population Normal (%): 97

COMPOUND: CCn1c(-c2nc3cc(C(=O)N4CCCC(N)C4)ccc3n2C)cc2ccccc21.Cl (stereo not given)
Population Normal (%): 95

COMPOUND: CN1CCN(c2ccc(Nc3c4ccccc4nc4ccccc34)cc2)CC1.Cl.Cl.O
Population Normal (%): 94

COMPOUND: Cc1nn(C)c2nc(NNC(=O)Nc3cc(Cl)nc(Cl)c3)cc(C(C)C)c12
Population Normal (%): 98

COMPOUND: Cc1cc(O)c(-c2ccc([C@@H](C)CN(C)C)cc2)c2c1[nH]c(=O)c1sccc12
Population Normal (%): 84

COMPOUND: Cc1ccc(OCC(O)C(C)NC(C)C)c2c1CCC2.Cl (stereo not given)
Population Normal (%): 97

COMPOUND: COc1cc2nc(N3CCN(C(=O)COc4c(OC)cccc4C(C)C)CC3)nc(N)c2cc1OC.Cl.Cl
Population Normal (%): 96

COMPOUND: C=CCN1C[C@H](C(=O)N(CCCN(C)C)C(=O)NCC)C[C@@H]2c3cccc4[nH]cc(c34)C[C@H]21
Population Normal (%): 96

COMPOUND: C[C@H](NC(=O)CNC(=O)c1cccc(Cl)c1)c1ccccc1
Population Normal (%): 97

COMPOUND: Cn1cc(C(=O)OCC2CCN(CCNS(C)(=O)=O)CC2)c2ccccc21
Population Normal (%): 97
